# Test system: TNFα release from MonoMac 6 cells
# experimental.details: Cell-Based TNFα Release Inhibition Protocol
# condition.parameters: Homo sapiens, MONO-MAC-6; LPS/PMA-stimulated MonoMac 6 cells, 37° C., 2 hours
property: IC50

[[record]]
compound = "CCC[C@@H]([C@@H](CC(C)Cc1ccccc1)C(=O)N[C@@H](CCCCNC(=O)OCc1ccccc1)C(=O)Nc1nccs1)N(O)C=O (some centres unmarked)"
readout_value = "100 to 500 nM"

[[record]]
compound = "C[C@@H]([C@@H](CC1CCC(c2ccccc2)CC1)C(=O)N[C@H](C(=O)Nc1nccs1)C(C)(C)C)N(O)C=O (some centres unmarked)"
readout_value = "> 1000 nM"

[[record]]
compound = "CCC[C@@H]([C@@H](CCCc1ccoc1)C(=O)N[C@@H](CCCCNC(=O)OCc1ccccc1)C(=O)Nc1nccs1)N(O)C=O"
readout_value = "< 100 nM"


Prompt: Respond only with IC50 recorded for CCC[C@@H]([C@@H](CC(C)Cc1ccccc1)C(=O)N[C@H](C(=O)Nc1nccs1)C(C)(C)SCCNC(=O)OCc1ccccc1)N(O)C=O (some centres unmarked)
Completion: > 1000 nM

Prompt: Item CCC[C@@H]([C@@H](CC(C)Cc1ccccc1)C(=O)N[C@H](C(=O)Nc1nccs1)C(C)(C)C)N(O)C=O (some centres unmarked) : provide IC50
Completion: > 1000 nM

----------
Listed molecules paired with reported pKi
# study.target: 50 kD truncated gelatinase B (MMP-9)
# experimental.details: Matrix Metalloprotease Inhibition Protocol, gelatinase B
# condition.parameters: fluorogenic substrate, pH 7.6; IC50 equivalent to Ki at [S]<<Km
pKi: −log10 of the molar value.

Field: example entries. Status: answers known.
[[record]]
molecule = "CCC[C@@H]([C@@H](CCCc1ccoc1)C(=O)N[C@@H](CCCCNC(=O)OCc1ccccc1)C(=O)Nc1nccs1)N(O)C=O"
property = "pKi"
readout_value = "6.30 to 7.00"

[[record]]
molecule = "CCC[C@@H]([C@@H](CC(C)Cc1ccccc1)C(=O)N[C@H](C(=O)Nc1nccs1)C(C)(C)C)N(O)C=O (stereo partly shown)"
property = "pKi"
readout_value = "< 6.00"

[[record]]
molecule = "C[C@@H]([C@@H](CC1CCC(c2ccccc2)CC1)C(=O)N[C@H](C(=O)Nc1nccs1)C(C)(C)C)N(O)C=O (stereo partly shown)"
property = "pKi"
readout_value = "6.30 to 7.00"

[[record]]
molecule = "CCC[C@@H]([C@@H](CC(C)Cc1ccccc1)C(=O)N[C@H](C(=O)Nc1nccs1)C(C)(C)SCCNC(=O)OCc1ccccc1)N(O)C=O (stereo partly shown)"
property = "pKi"
readout_value = "< 6.00"

[[record]]
molecule = "CCC[C@@H]([C@@H](CCCc1ccoc1)C(=O)N[C@H](C(=O)Nc1nccs1)C(C)(C)C)N(O)C=O"
property = "pKi"
readout_value = "> 7.00"


Prompt: Identify measured pKi corresponding to "C[C@@H]([C@@H](CCCc1ccc(Cl)cc1)C(=O)N[C@H](C(=O)Nc1cccnc1)C(C)(C)C)N(O)C=O"
Completion: > 7.00

Prompt: Give recorded pKi. CCC[C@@H]([C@@H](CC(C)Cc1ccccc1)C(=O)N[C@@H](CCCCNC(=O)OCc1ccccc1)C(=O)Nc1nccs1)N(O)C=O (stereo partly shown)
Completion: < 6.00

Prompt: Read off the recorded pKi for "CCC[C@@H]([C@H](COCc1ccccc1)C(=O)N[C@@H](CCCCNC(=O)OCc1ccccc1)C(=O)Nc1nccs1)N(O)C=O"
Completion: < 6.00

Prompt: For "C[C@@H]([C@@H](CCCc1ccccc1)C(=O)N[C@H](C(=O)Nc1cccnc1)C(C)(C)C)N(O)C=O" , write its pKi.
Completion: > 7.00

Prompt: Complete the entry with pKi for "CC(C)(C)[C@H](NC(=O)[C@H](CCCc1ccccc1)[C@H](CCC(F)(F)F)N(O)C=O)C(=O)Nc1nccs1"
Completion: > 7.00

----------
# maps each entry to its pIC50
# Tested on: TNFα release from MonoMac 6 cells
# experimental.details: Cell-Based TNFα Release Inhibition Protocol
# condition.parameters: Homo sapiens, MONO-MAC-6; LPS/PMA-stimulated MonoMac 6 cells, 37° C., 2 hours
pIC50: −log10 of the molar value.

Example results:
[[record]]
compound_structure = "CCC[C@@H]([C@H](COCc1ccccc1)C(=O)N[C@@H](CCCCNC(=O)OCc1ccccc1)C(=O)Nc1nccs1)N(O)C=O"
property = "pIC50"
readout_value = "< 6.00"

[[record]]
compound_structure = "CCC[C@@H]([C@@H](CCCc1ccccc1)C(=O)N[C@@H](CCCCNC(=O)OCc1ccccc1)C(=O)Nc1nncs1)N(O)C=O"
property = "pIC50"
readout_value = "6.30 to 7.00"


Next molecule, please.
Prompt: Tell me pIC50 reported for "CCC[C@@H]([C@@H](CCCc1ccoc1)C(=O)N[C@H](C(=O)Nc1nccs1)C(C)(C)C)N(O)C=O"
Completion: 6.30 to 7.00
